- Test system: HBL 100 (Breast)
- assayText: MTT cytotoxicity assay, 48 hours (Example 14)
- Assay type: cell-based, human
- testContext: HBL100, 10 nM
Non-standard residues stand in square brackets, D forms with d. Residues, ends and D or L forms follow the SMILES beside them. *: point of attachment. Octanoyl = CCCCCCCC(=O)*; Ac5c = NC1(C(=O)O)CCCC1; Deg = CCC(N)(CC)C(=O)O; Aib = CC(C)(N)C(=O)O; Butyryl = CCCC(=O)*
Percentage cytotoxicity values by entry
observable: Percentage cytotoxicity

INSERT INTO results (compound, result) VALUES
  ('CCCC(=O)N[C@H](Cc1ccccc1)C(=O)N[C@@H](CCC(N)=O)C(=O)N[C@@H](Cc1c[nH]c2ccccc12)C(=O)N[C@@H](C)C(=O)N[C@H](C(=O)NC(C)(C)C(=O)N[C@@H](Cc1c[nH]cn1)C(=O)N[C@@H](CC(C)C)C(N)=O)C(C)C [SEQ ID: 11] (Butyryl-[dF]QWAV[Aib]HL-NH2)', '29.9 ± 0.3%'),
  ('CCCCCCCC(=O)N[C@H](Cc1ccccc1)C(=O)N[C@@H](CCC(N)=O)C(=O)N[C@@H](Cc1c[nH]c2ccccc12)C(=O)N[C@@H](C)C(=O)N[C@H](C(=O)NC(C)(C)C(=O)N[C@@H](Cc1c[nH]cn1)C(=O)N[C@@H](CC(C)C)C(N)=O)C(C)C [SEQ ID: 12] (Octanoyl-[dF]QWAV[Aib]HL-NH2)', '27.7 ± 1.5%'),
  ('CCC(CC)(NC(=O)[C@H](Cc1c[nH]c2ccccc12)NC(=O)[C@H](CCC(N)=O)NC(=O)[C@H](N)Cc1ccccc1)C(=O)N[C@H](C(=O)NCC(=O)N[C@@H](Cc1c[nH]cn1)C(=O)N[C@@H](CC(C)C)C(N)=O)C(C)C [SEQ ID: 9, D-Phe-Gln-Trp-Deg-Val-Gly-His-Leu-NH2] (H-[dF]QW[Deg]VGHL-NH2; N-terminus assumed)', '28.1 ± 0.6%'),
  ('CC(C)C[C@H](NC(=O)[C@H](Cc1c[nH]cn1)NC(=O)C1(NC(=O)[C@@H](NC(=O)[C@H](C)NC(=O)[C@H](Cc2c[nH]c3ccccc23)NC(=O)[C@H](CCC(N)=O)NC(=O)[C@H](N)Cc2ccccc2)C(C)C)CCCC1)C(N)=O [SEQ ID: 10, D-Phe-Gln-Trp-Ala-Val-Ac5c-His-Leu-NH2] (H-[dF]QWAV[Ac5c]HL-NH2; N-terminus assumed)', '32.9 ± 0.7%');

* * *

Quick reference: Percentage cytotoxicity of the listed items.
- Tested on: HuTu80 (Stomach)
- assayText: MTT cytotoxicity assay, 48 hours (Example 14)
- Assay type: cell-based, human
- testContext: HuTu80, 100 pM
Non-standard residues stand in square brackets, D forms with d. Residues, ends and D or L forms follow the SMILES beside them. *: point of attachment. Octanoyl = CCCCCCCC(=O)*; Ac5c = NC1(C(=O)O)CCCC1; Deg = CCC(N)(CC)C(=O)O; Aib = CC(C)(N)C(=O)O; Butyryl = CCCC(=O)*
observable: Percentage cytotoxicity (%)

INSERT INTO results (molecule, observable, unitname, numericresult) VALUES
  ('CCCCCCCC(=O)N[C@H](Cc1ccccc1)C(=O)N[C@@H](CCC(N)=O)C(=O)N[C@@H](Cc1c[nH]c2ccccc12)C(=O)N[C@@H](C)C(=O)N[C@H](C(=O)NC(C)(C)C(=O)N[C@@H](Cc1c[nH]cn1)C(=O)N[C@@H](CC(C)C)C(N)=O)C(C)C [SEQ ID: 12] (Octanoyl-[dF]QWAV[Aib]HL-NH2)', 'Percentage cytotoxicity', '%', 13.0),
  ('CCC(CC)(NC(=O)[C@H](Cc1c[nH]c2ccccc12)NC(=O)[C@H](CCC(N)=O)NC(=O)[C@H](N)Cc1ccccc1)C(=O)N[C@H](C(=O)NCC(=O)N[C@@H](Cc1c[nH]cn1)C(=O)N[C@@H](CC(C)C)C(N)=O)C(C)C [SEQ ID: 9, D-Phe-Gln-Trp-Deg-Val-Gly-His-Leu-NH2] (H-[dF]QW[Deg]VGHL-NH2; N-terminus assumed)', 'Percentage cytotoxicity', '%', 23.8),
  ('CCCC(=O)N[C@H](Cc1ccccc1)C(=O)N[C@@H](CCC(N)=O)C(=O)N[C@@H](Cc1c[nH]c2ccccc12)C(=O)N[C@@H](C)C(=O)N[C@H](C(=O)NC(C)(C)C(=O)N[C@@H](Cc1c[nH]cn1)C(=O)N[C@@H](CC(C)C)C(N)=O)C(C)C [SEQ ID: 11] (Butyryl-[dF]QWAV[Aib]HL-NH2)', 'Percentage cytotoxicity', '%', 22.6),
  ('CC(C)C[C@H](NC(=O)[C@H](Cc1c[nH]cn1)NC(=O)C1(NC(=O)[C@@H](NC(=O)[C@H](C)NC(=O)[C@H](Cc2c[nH]c3ccccc23)NC(=O)[C@H](CCC(N)=O)NC(=O)[C@H](N)Cc2ccccc2)C(C)C)CCCC1)C(N)=O [SEQ ID: 10, D-Phe-Gln-Trp-Ala-Val-Ac5c-His-Leu-NH2] (H-[dF]QWAV[Ac5c]HL-NH2; N-terminus assumed)', 'Percentage cytotoxicity', '%', 22.9);

* * *

- Tested on: MOLT-4 (leukemia)
- assayText: MTT cytotoxicity assay, 72 hours (Example 13)
- Assay type: cell-based, human
- testContext: MOLT4, 100 PM
Non-standard residues stand in square brackets, D forms with d. Residues, ends and D or L forms follow the SMILES beside them. Aib = CC(C)(N)C(=O)O
Known Percent Cytotoxicity of a selection of compounds
observable: Percent Cytotoxicity (%)

INSERT INTO results (compound, numericresult) VALUES
  ('CC(C)C[C@H](NC(=O)[C@H](Cc1c[nH]cn1)NC(=O)C(C)(C)NC(=O)[C@@H](NC(=O)[C@H](C)NC(=O)[C@@H](Cc1c[nH]c2ccccc12)NC(=O)[C@H](CCC(N)=O)NC(=O)[C@H](N)Cc1ccccc1)C(C)C)C(N)=O [SEQ ID: 5, D-Phe-Gln-D-Trp-Ala-Val-Aib-His-Leu-NH2] (H-[dF]Q[dW]AV[Aib]HL-NH2; N-terminus assumed)', 8.7),
  ('CCCC(CCC)(NC(=O)[C@@H](NC(=O)[C@H](C)NC(=O)[C@@H](Cc1c[nH]c2ccccc12)NC(=O)[C@H](CCC(N)=O)NC(=O)[C@H](N)Cc1ccccc1)C(C)C)C(=O)N[C@@H](Cc1c[nH]cn1)C(=O)N[C@@H](CC(C)C)C(N)=O', 16.6),
  ('CC(C)C[C@H](NC(=O)[C@H](Cc1c[nH]cn1)NC(=O)CNC(=O)[C@@H](NC(=O)C(C)(C)NC(=O)[C@H](Cc1c[nH]c2ccccc12)NC(=O)[C@H](CCC(N)=O)NC(=O)[C@H](N)Cc1ccccc1)C(C)C)C(N)=O [SEQ ID: 4, D-Phe-Gln-Trp-Aib-Val-Gly-His-Leu-NH2] (H-[dF]QW[Aib]VGHL-NH2; N-terminus assumed)', 28.5),
  ('CC[C@H](C)[C@H](NC(=O)[C@H](Cc1c[nH]cn1)NC(=O)CNC(=O)[C@@H](NC(=O)C(C)(C)NC(=O)[C@H](Cc1c[nH]c2ccccc12)NC(=O)[C@H](CCC(N)=O)NC(=O)[C@H](N)Cc1ccccc1)C(C)C)C(N)=O [SEQ ID: 6, D-Phe-Gln-Trp-Aib-Val-Gly-His-Ile-NH2] (H-[dF]QW[Aib]VGHI-NH2; N-terminus assumed)', 11.0);

* * *

- System: DU145 (prostate)
- assayText: MTT cytotoxicity assay, 72 hours (Example 13)
- Assay type: cell-based, human
- testContext: DU145, 100 PM
Non-standard residues stand in square brackets, D forms with d. Residues, ends and D or L forms follow the SMILES beside them. Aib = CC(C)(N)C(=O)O
observable: Percent Cytotoxicity

INSERT INTO measurements (molecule, result) VALUES
  ('CC[C@H](C)[C@H](NC(=O)[C@H](Cc1c[nH]cn1)NC(=O)CNC(=O)[C@@H](NC(=O)C(C)(C)NC(=O)[C@H](Cc1c[nH]c2ccccc12)NC(=O)[C@H](CCC(N)=O)NC(=O)[C@H](N)Cc1ccccc1)C(C)C)C(N)=O [SEQ ID: 6, D-Phe-Gln-Trp-Aib-Val-Gly-His-Ile-NH2] (H-[dF]QW[Aib]VGHI-NH2; N-terminus assumed)', '12.1 ± 0.8%');

* * *

- Tested on: DU145 (prostate)
- assayText: MTT cytotoxicity assay, 72 hours (Example 13)
- Type: cell-based, human
- testContext: DU145, 1 nM
Non-standard residues stand in square brackets, D forms with d. Residues, ends and D or L forms follow the SMILES beside them. Aib = CC(C)(N)C(=O)O
Listing: Percent Cytotoxicity of selected compounds
observable: Percent Cytotoxicity (%)

INSERT INTO measurements (compound, numericresult) VALUES
  ('CCCC(CCC)(NC(=O)[C@@H](NC(=O)[C@H](C)NC(=O)[C@@H](Cc1c[nH]c2ccccc12)NC(=O)[C@H](CCC(N)=O)NC(=O)[C@H](N)Cc1ccccc1)C(C)C)C(=O)N[C@@H](Cc1c[nH]cn1)C(=O)N[C@@H](CC(C)C)C(N)=O', 21.4),
  ('CC(C)C[C@H](NC(=O)[C@H](Cc1c[nH]cn1)NC(=O)C(C)(C)NC(=O)[C@@H](NC(=O)[C@H](C)NC(=O)[C@@H](Cc1c[nH]c2ccccc12)NC(=O)[C@H](CCC(N)=O)NC(=O)[C@H](N)Cc1ccccc1)C(C)C)C(N)=O [SEQ ID: 5, D-Phe-Gln-D-Trp-Ala-Val-Aib-His-Leu-NH2] (H-[dF]Q[dW]AV[Aib]HL-NH2; N-terminus assumed)', 10.6),
  ('CC[C@H](C)[C@H](NC(=O)[C@H](Cc1c[nH]cn1)NC(=O)CNC(=O)[C@@H](NC(=O)C(C)(C)NC(=O)[C@H](Cc1c[nH]c2ccccc12)NC(=O)[C@H](CCC(N)=O)NC(=O)[C@H](N)Cc1ccccc1)C(C)C)C(N)=O [SEQ ID: 6, D-Phe-Gln-Trp-Aib-Val-Gly-His-Ile-NH2] (H-[dF]QW[Aib]VGHI-NH2; N-terminus assumed)', 3.9);
